# Test system: HL60
# experimental.details: cells
# test.conditions: Homo sapiens, HL-60, 6 h, read-out: AZD5991 6h EC50
readout.kind: pEC50
# log scale: pEC50 equals minus log10 of the concentration in mol/L

// pEC50 lookup, compound = Cc1c2c(nn1C)CSCc1cc(n(C)n1)CSc1cc(c3ccccc3c1)OCCCc1c(C(=O)O)n(C)c3c-2c(Cl)ccc13 (atropisomer, axis not shown; (Ra)) [(Ra)-7] , result: 6.18

====

# Test system: ME1
# experimental.details: Caspase-3/7 activation assay
# Format: cell-based
# test.conditions: ME-1, 6 h, read-out: 6h caspase EC50; ME1, single agent
readout.kind: EC50 (nM)
Report the figure in nM without appending any unit label.

// EC50 lookup, molecule = CC1(C)CCC(CN2CCN(c3ccc(C(=O)NS(=O)(=O)c4ccc(NCC5CCOCC5)c([N+](=O)[O-])c4)c(Oc4cnc5[nH]ccc5c4)c3)CC2)=C(c2ccc(Cl)cc2)C1 [venetoclax, reference compound] , result: 10.2

====

What EC50 was measured for each of the following?
# Test system: OCIAML3
# experimental.details: Caspase-3/7 activation assay
# Format: cell-based
# test.conditions: Homo sapiens, OCI-AML-3, 6 h, read-out: 6h caspase EC50; OCIAML3, single agent

// EC50 lookup, molecule = Cc1c2c(nn1C)CSCc1cc(n(C)n1)CSc1cc(c3ccccc3c1)OCCCc1c(C(=O)O)n(C)c3c-2c(Cl)ccc13 (atropisomer, axis not shown; (Ra)) [(Ra)-7] , result: > 333 nM

// EC50 lookup, molecule = CC1(C)CCC(CN2CCN(c3ccc(C(=O)NS(=O)(=O)c4ccc(NCC5CCOCC5)c([N+](=O)[O-])c4)c(Oc4cnc5[nH]ccc5c4)c3)CC2)=C(c2ccc(Cl)cc2)C1 [venetoclax, reference compound] , result: > 333 nM

====

What pKd was measured for each of the following?
# assay.target: Mcl-1 (Homo sapiens, UniProt Q07820)
# Sequence (Q07820 171-327): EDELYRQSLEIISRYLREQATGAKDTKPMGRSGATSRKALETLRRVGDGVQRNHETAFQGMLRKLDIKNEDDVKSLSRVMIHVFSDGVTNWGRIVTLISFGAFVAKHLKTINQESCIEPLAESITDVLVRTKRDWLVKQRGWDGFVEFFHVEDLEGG
# experimental.details: SPR direct binding assay
# Parameters: 6His-tagged Mcl-1 protein (E171-G327) was immobilized using NTA capture-coupling
# test.conditions: read-out: Mcl-1 SPR, Kd
# log scale: pKd equals minus log10 of the concentration in mol/L

// pKd lookup, compound = Cc1c2c(nn1C)CSCc1cc(n(C)n1)CSc1cc(c3ccccc3c1)OCCCc1c(C(=O)O)n(C)c3c-2cccc13 , result: 8.10

// pKd lookup, compound = Cc1c2c(nn1C)CSCc1cc(n(C)n1)CSc1cc(c3ccccc3c1)OCCCc1c(C(=O)O)[nH]c3c-2cccc13 , result: 7.33

// pKd lookup, compound = Cc1nn(C)c(C)c1-c1cccc2c(CCCOc3cccc4ccccc34)c(C(=O)O)[nH]c12 [Compound 2, reference compound] , result: 6.19

// pKd lookup, compound = Cc1nn(C)c(COc2ccc(N3CCN(S(=O)(=O)N(C)C)CC3)cc2)c1-c1cccc2c(CCCOc3cccc4ccccc34)c(C(=O)O)n(CCN3CCOCC3)c12 [Compound 8, A-1210477, reference compound] , result: 7.96

====

# Tested on: DU145
# experimental.details: cells
# test.conditions: Homo sapiens, DU-145, 6 h, read-out: AZD5991 6h EC50
pEC50: −log10 of the molar value.
readout.kind: pEC50

// pEC50 lookup, molecule = Cc1c2c(nn1C)CSCc1cc(n(C)n1)CSc1cc(c3ccccc3c1)OCCCc1c(C(=O)O)n(C)c3c-2c(Cl)ccc13 (atropisomer, axis not shown; (Ra)) [(Ra)-7] , result: < 4.52
